Biological target: T1, Placenta Growth Factor (PlGF), human (human, UniProt P49763 21-149)
T1 chain: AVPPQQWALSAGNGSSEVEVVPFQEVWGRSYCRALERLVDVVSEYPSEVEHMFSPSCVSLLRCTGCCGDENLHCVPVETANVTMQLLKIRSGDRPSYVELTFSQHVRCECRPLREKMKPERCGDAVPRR
Test: ELISA
Measured Quantity: pEC50
pEC50 is defined as minus the log10 of a concentration measured in mol/L.

[in] Name the recorded pEC50 of the binder listed here: HC 8/SLC 15 (antibody) chain 1: GQGTLVTVSSASTKGPSVQPVLHQPPAMSSALGTTIRLTCTLRNDHDIGVYSVYWYQQRPGHPPRFLLRYFSQSDKSQGPQVPPRFSGSKDVARNRGYLSISELQPEDEAMYYCAMGARSRCWPRGFQSKHNSVTHVFGSGTQLTVLSQPKATPSVTLFPPSSEELQANKATLVCLMNDFYPGILTVTWKADGTPITQGVEMTTPSKQSNNKYAASSYLSLTPEQWRSRRSYSCQVMHEGSTVEKTVAPAECS chain 2: MSWAPVLLMLFVYCTGCGPQPVLHQPPAMSSALGTTIRLTCTLRNDHDIGVYSVYWYQQRPGHPPRFLLRYFSQSDKSQGPQVPPRFSGSKDVARNRGYLSISVTHVFGSGTQLTVLSQPKATPSVTGGGGSQVQLVQ
[out] 10.30
